All figures here come from the Immune Epitope Database (IEDB).

- study target: HLA-A*02:03
- protocol text: IEDB peptide-MHC binding, purified MHC/competitive/radioactivity; filed as Kd, often an IC50 or EC50 that approximates it; bounds were set here for any values at or beyond the usual limits of such assays
- run parameters: source organism: Vaccinia virus WR
Catalogue of Kd values
Output spec: scalar in nM, unitless text.

| residue codes | value type | test result |
| --- | --- | --- |
| RVSENTGMGM | Kd | 88.9 |

Reported Kd of "NITPDDGLGL" : 1290

// sample "VIKLVKSLV" , its Kd was 126

Summary for this sequence, "ALKNSQAELT" : Kd is 980

For record "LATLNTLITL" the listed Kd is 338

Record "ILKDPRIASI" . Reported Kd: 1030

response.value for "DIRDKYMEL" (field: Kd) = 3860

Noted for "TILDDNLYKV" : its Kd reads 1630

For this sequence ( "AVYFKAKWLT" ), measured Kd is 8930

For record "VTKRDESSI" the listed Kd is 2140

// sample "VIRHVDGKI" , its Kd was 978

Entry "IVNNFITKEI" — recorded Kd = 192

Recorded result, "RTNDLTALL" , Kd: 7.23

Kd reported for this sequence "NVIEDITFL" : 300

----------
- study target: HLA-A*26:01
- protocol text: IEDB peptide-MHC binding, purified MHC/competitive/radioactivity; filed as Kd, often an IC50 or EC50 that approximates it; bounds were set here for any values at or beyond the usual limits of such assays
- run parameters: source organism: SARS coronavirus Tor2
pKd: −log10 of the molar value.
value type: pKd

Below: 3 sequences and their reported pKd.
| residue codes | study target | pKd |
| --- | --- | --- |
| KTSVDCNMY | HLA-A*26:01 | ≤ 4.09 |
| LFTKFFYLL | HLA-A*26:01 | ≤ 4.42 |
| YYCKSHKPPI | HLA-A*26:01 | ≤ 4.16 |

For reference, reported pKd for "FFASFYYIW" stands at ≤ 4.58

Summary for this sequence, "VFNNYMPYVF" : pKd is ≤ 4.67

----------
Reported Kd values for the following sequences.
- study target: HLA-B*54:01
- protocol text: IEDB peptide-MHC binding, purified MHC/competitive/radioactivity; filed as Kd, often an IC50 or EC50 that approximates it; bounds were set here for any values at or beyond the usual limits of such assays
- run parameters: source organism: Vaccinia virus WR

Use these answered entries as a reference point.
| residue codes | Kd |
| --- | --- |
| LLFASMGFK | ≥ 78.1 µM |
| VTNLISETLK | ≥ 69.9 µM |
| ATLMKTSCSK | ≥ 69.9 µM |

get_value(item= "RPDTRHLRVL" , readout=Kd) returns ≥ 69.9 µM

Consider "NPKASTISWM" . Its measured Kd is ≥ 35.9 µM

----------
- study target: HLA-A*02:02
- protocol text: IEDB peptide-MHC binding, purified MHC/competitive/radioactivity; filed as Kd, often an IC50 or EC50 that approximates it; bounds were set here for any values at or beyond the usual limits of such assays
- run parameters: source organism: Vaccinia virus WR
pKd: −log10 of the molar value.
value type: pKd

Guide cases for pKd, answers given:
| residue codes | study target | value type | test result |
| --- | --- | --- | --- |
| RPDTRHLRVL | HLA-A*02:02 | pKd | ≤ 4.15 |
| CTEETKRNI | HLA-A*02:02 | pKd | ≤ 4.11 |
| ETAIRAGYSI | HLA-A*02:02 | pKd | ≤ 4.59 |

Notebook: "DIRDKYMEL" , pKd read as ≤ 4.61

Summary for this sequence, "AINKCVDIFT" : pKd is ≤ 4.60

Reported pKd of "VTNLISETLK" : ≤ 4.15

response.value for "TQLFKYVPSA" (field: pKd) = ≤ 4.15

Per the records, this sequence ( "LAIKNYYRKT" ) has pKd equal to ≤ 4.43

Looking up "CVKYLLDNDI" , I found its pKd recorded as ≤ 4.50

Reported pKd of "ATLMKTSCSK" : ≤ 4.15

Noted for "AVYFKAKWLT" : its pKd reads ≤ 4.57

----------
- study target: HLA-A*02:06
- protocol text: IEDB peptide-MHC binding, purified MHC/competitive/radioactivity; filed as Kd, often an IC50 or EC50 that approximates it; bounds were set here for any values at or beyond the usual limits of such assays
- run parameters: source organism: Vaccinia virus WR
Overview of recorded pKd for various sequences
Friendly reminder that pKd comes from taking -log10 of the concentration in mol/L.

Below, each entry is followed by its recorded pKd result.
| residue codes | study target | pKd |
| --- | --- | --- |
| RVSENTGMGM | HLA-A*02:06 | 6.84 |
| FLARKGIDT | HLA-A*02:06 | 5.52 |
| NVIEDITFL | HLA-A*02:06 | 7.59 |
| ETAIRAGYSI | HLA-A*02:06 | 4.75 |
| ALMTLDDLAI | HLA-A*02:06 | 7.62 |
| SVMNFIPII | HLA-A*02:06 | 8.55 |

Okay, now this sequence:
pKd measured on "ILKDPRIASI" = 5.40

----------
Parameter: Kd. Scope: all listed entries.
- study target: HLA-B*51:01
- protocol text: IEDB peptide-MHC binding, purified MHC/competitive/radioactivity; filed as Kd, often an IC50 or EC50 that approximates it; bounds were set here for any values at or beyond the usual limits of such assays
- run parameters: source organism: Vaccinia virus WR

| residue codes | Kd |
| --- | --- |
| CPKIFNNNY | ≥ 77.5 µM |
| LLFASMGFK | ≥ 77.5 µM |
| DPEYFDNERI | 3.86 µM |
| VPVLEKKVCA | ≥ 29.1 µM |
| TPNYMKLLV | ≥ 77.5 µM |
| HPFIYVIRHV | 1.02 µM |
| LPSLEYGANY | ≥ 69.6 µM |
| RPSIGNVFKA | ≥ 69.6 µM |

The value of Kd measured for the sequence "ATLMKTSCSK" turned out to be ≥ 69.6 µM

----------
Catalogue of sequences with associated pKd
- study target: HLA-A*33:01
- protocol text: IEDB peptide-MHC binding, purified MHC/competitive/radioactivity; filed as Kd, often an IC50 or EC50 that approximates it; bounds were set here for any values at or beyond the usual limits of such assays
- run parameters: source organism: Vaccinia virus WR
pKd (log units): -log10 of the concentration in mol/L.

Worked examples, 5 sequences total:
| residue codes | study target | pKd |
| --- | --- | --- |
| KIMEIVSHLR | HLA-A*33:01 | 7.20 |
| YLGSANMDWR | HLA-A*33:01 | 5.43 |
| IMSIGFEAR | HLA-A*33:01 | 6.44 |
| NTMCTEETK | HLA-A*33:01 | 4.80 |
| LTAVCMKCFK | HLA-A*33:01 | 5.69 |

pKd measured on "TTYMDTFFR" = 7.97

GET /value?item= "NAKVGDDVK" &field=pKd returns 4.77

Summary for this sequence, "SLVENNFFTK" : pKd is 6.15

----------
- study target: HLA-A*03:01
- protocol text: IEDB peptide-MHC binding, purified MHC/competitive/radioactivity; filed as Kd, often an IC50 or EC50 that approximates it; bounds were set here for any values at or beyond the usual limits of such assays
- run parameters: source organism: Vaccinia virus WR
value type: pKd
Bear in mind: pKd is minus log10 of a mol/L concentration; give just that figure.

| residue codes | pKd |
| --- | --- |
| KLVYIFEPEK | 7.27 |
| EIINFTISMR | 5.79 |
| ISDNKKEYK | 5.70 |
| LTAVCMKCFK | 7.53 |
| TIREFPRKDK | 4.88 |

Here's the next entry for you.
// "ATFIDVHIPK" : pKd value = 8.04

----------
// reported Kd for each item listed
- study target: HLA-A*11:01
- protocol text: IEDB peptide-MHC binding, purified MHC/competitive/radioactivity; filed as Kd, often an IC50 or EC50 that approximates it; bounds were set here for any values at or beyond the usual limits of such assays
- run parameters: source organism: Vaccinia virus WR

In the examples that follow, each entry is paired with its recorded Kd.
| residue codes | Kd |
| --- | --- |
| ILARNEEGR | ≥ 77.9 µM |
| VAGTGVQFY | ≥ 26.5 µM |
| RPDTRHLRVL | ≥ 69.8 µM |

For the next question, use this sequence.
GET /value?item= "KFISDNKKEY" &field=Kd returns ≥ 69.8 µM

----------
- study target: HLA-A*68:01
- protocol text: IEDB peptide-MHC binding, purified MHC/competitive/radioactivity; filed as Kd, often an IC50 or EC50 that approximates it; bounds were set here for any values at or beyond the usual limits of such assays
- run parameters: source organism: Vaccinia virus WR
Values of Kd strictly less than 500 nM map to satisfied, and values of at least 500 nM map to not satisfied.

| residue codes | assigned label |
| --- | --- |
| AITDNGPMPY | not satisfied |
| IMEIVSHLR | satisfied |
| ELCGAFLFY | satisfied |
| TFQLLNMIK | satisfied |

Input: Decide: Kd of "KIDKLTFQIY" strictly below 500 nM?
Output: not satisfied

Input: Take the sequence "IAHINTLIQY" and say whether its Kd is less than 500 nM.
Output: not satisfied

Input: Quick check: Kd of "RPDTRHLRVL" under 500 nM?
Output: not satisfied

Input: Consider "ASGQRCHFIK" . Does its Kd lie strictly below 500 nM?
Output: not satisfied
